# assay: NCI Yeast Anticancer Drug Screen. Data for the mlh1 rad18 strain (AID 175)
# recorded.conditions: S. cerevisiae mlh1 rad18 strain growth inhibition; at 50.0 µM (retest, dose inferred, filed as 5.0)
The panel holds about 79,000 compounds, 15% with a hit somewhere; the sample as a whole holds those more often. Active and inactive are the calls of the source. Cut-off read from the data, not from the text of the source: active = growth inhibition above about 70%; inactive = the rest.
Hello, when you answer, please use one of the following outcomes: active, inactive

Example entries begin here.
- compound: "O=C([CH-]C(=O)c1ccccc1)c1ccccc1.O=C([CH-]C(=O)c1ccccc1)c1ccccc1.[La+3].[OH-].[OH3+]"
  category.label: "inactive"
- compound: "CCC[CH2][Sn]1([CH2]CCC)[O]c2ccccc2[O]1"
  category.label: "active"
- compound: "CNP(=O)(Oc1cc(Cl)c(Cl)cc1Cl)N1CCN(c2ccccc2)CC1 (configuration not stated)"
  category.label: "active"

Hey, what did the test say about Sc1ccccc1.[Ag] ? active

Tell me the recorded outcome of this test for O=[N+]([O-])/C=C/c1cccc(F)c1 . active

Which outcome did this test record for the compound O=[N+]([O-])c1ccc(N2CCOCC2)c2c1no[n+]2[O-] ? active

What did this assay record as the result for CN(C=O)C(=S)[S][Sb]([S]C(=S)N(C)C=O)[S]c1nc2ccc(N=Nc3ccc(NS(=O)(=O)c4ccc(NC(=O)C(N5CC5)(N5CC5)N5CC5)cc4)cc3)cc2s1 ? inactive

State the result this test recorded for O=C(CBr)OCC(O)CCl (configuration not stated) . active
